B1: Glucocorticoid receptor, residues 419 to 494; numbered along this chain, P04150 (parent)
chain: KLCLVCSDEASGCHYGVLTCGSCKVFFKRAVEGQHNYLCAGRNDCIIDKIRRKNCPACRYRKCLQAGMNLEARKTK

variants of: B1; experiment: abundance fitness (aPCA) (normalised: wild type 0, dead -1); higher = more abundant; growth selection in yeast, the domain comes from the species named; settings: Homo sapiens
Quick reference: abundance fitness of the listed items.
Respond with the number and no other words.

>  <primary_sequence>
KLCLVCSDEASGCHYGVLTCGSCKVFFKRAVEGQHNYLCAGRNDCIIDKIRRKNCPACRYCKCLQAGMNLEARKTK [R61C]

>  <observed_value>
-0.112

$$$$
>  <primary_sequence>
KLCLVCSDEASGCHYGVLTCGSCKVFFKRAVEGQHNYLCAGRNDCNIDKIRRKNCPACRYRKCLQAGMNLEARKTK [I46N]

>  <observed_value>
-0.002

$$$$
>  <primary_sequence>
KLCLVCSDEASGCHYGVLTCGSCKVFFKRAVEGQHNYLCAGRNDCIIDKIRRKNCPACRYRKCLQAGMNLEARKTC [K76C]

>  <observed_value>
0.132

$$$$

For reference, reported abundance fitness for KLCLVCSDEASGCHYGVLTCPSCKVFFKRAVEGQHNYLCAGRNDCIIDKIRRKNCPACRYRKCLQAGMNLEARKTK [G21P] stands at -0.008

Measured abundance fitness of KLCLVCSDEASGCHYGVLTCGSCKVFFKRAVEGQHNYLCAGRNDCIIDQIRRKNCPACRYRKCLQAGMNLEARKTK [K49Q] : -0.033

Kindly note the recorded abundance fitness for KLCLVCSDEASGCHYGVLTCGSCKVFFKRAFEGQHNYLCAGRNDCIIDKIRRKNCPACRYRKCLQAGMNLEARKTK [V31F] , which is -0.007

So for KLCLVCSDDASGCHYGVLTCGSCKVFFKRAVEGQHNYLCAGRNDCIIDKIRRKNCPACRYRKCLQAGMNLEARKTK [E9D] , the logged abundance fitness turned out to be -0.015

Measured abundance fitness of KLCLVCSDEASGCHYGVLTCGSCKVFFKRAVEGQHNYLCAGRNDCIIDKIRRKNCPACRYRKQLQAGMNLEARKTK [C63Q] : -0.661

Reported abundance fitness of KLCLVCSDEASGCHYGVLTCGSCKVFFKRANEGQHNYLCAGRNDCIIDKIRRKNCPACRYRKCLQAGMNLEARKTK [V31N] : -0.104

// abundance fitness value for KLCLVCSDEASGCHYGVLTCGSCKVFFKRAVEGQHNYLCAGRNDCIIDKIRRKNCPACRYRKCLQAGDNLEARKTK [M68D] : -0.768

// field: abundance fitness; key: KLCLVCSDEASGCHYGVLTCGSCKVFFKIAVEGQHNYLCAGRNDCIIDKIRRKNCPACRYRKCLQAGMNLEARKTK [R29I] ; value = 0.018

Per the records, this variant ( KLCLVCSDEASGCHYGVHTCGSCKVFFKRAVEGQHNYLCAGRNDCIIDKIRRKNCPACRYRKCLQAGMNLEARKTK [L18H] ) has abundance fitness equal to -0.012
